- Tested on: estrogen receptor (rat uterine cytosol)
- MEASUREMENT_PROTOCOL: DSSTox (NCTRER) National Center for Toxicological Research Estrogen Receptor Binding Database;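 further: ratio of estradiol IC50 over compound IC50 times 100 so estradiol equals 100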
- EXPERIMENTAL_PARAMETERS: rat uterine cytosol ER competitive binding, RBA; ChemClass_ERB: Phytoestrogens Isoflavones; active compounds read high
Records with an inconclusive call do not appear.
Output 1.0 for relative binding affinity not less than 0.004%; output 0.0 otherwise.

The following compounds have reported results that may help.
smiles=COc1cc(O)c2c(=O)c(-c3ccc(O)cc3)coc2c1 class_label=0.0
smiles=COc1ccc(-c2coc3cc(O)cc(O)c3c2=O)cc1 class_label=1.0

Inquiry: Has Oc1ccc([C@H]2COc3cc(O)ccc3C2)cc1 a recorded relative binding affinity greater than or equal to 0.004%?
Reply text: 1.0

Inquiry: Input O=c1c(-c2ccc(O)cc2)coc2cc(O)ccc12
Reply text: 1.0

Inquiry: Item: O=c1c(-c2ccc(O)c(O)c2)coc2cc(O)ccc12
Reply text: 1.0

Inquiry: Lookup COc1ccc(-c2coc3cc(O)ccc3c2=O)cc1
Reply text: 0.0

====

- System: estrogen receptor (rat uterine cytosol)
- MEASUREMENT_PROTOCOL: DSSTox (NCTRER) National Center for Toxicological Research Estrogen Receptor Binding Database;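 further: ratio of estradiol IC50 over compound IC50 times 100 so estradiol equals 100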
- EXPERIMENTAL_PARAMETERS: rat uterine cytosol ER competitive binding, RBA; ChemClass_ERB: Steroids With aromatic A ring; active compounds read high
Results filed as inconclusive are left out.
Classify by measured relative binding affinity: t if it is equal to or exceeds 3%, f if it is smaller.

Inquiry: For this compound, is measured relative binding affinity 3% or higher? C[C@@]12CCC[C@H]1[C@@H]1CCc3cc(O)ccc3[C@H]1CC2
Reply text: t

Inquiry: Next: C#C[C@]1(O)CC[C@H]2[C@@H]3CCc4cc(OC)ccc4[C@H]3CC[C@@]21C
Reply text: f

Inquiry: Query C[C@]12CC[C@@H]3c4ccccc4CC[C@H]3[C@@H]1CC[C@@H]2O next
Reply text: f

Inquiry: Same thing, different compound: C[C@]12CC[C@@H]3c4cc(O)c(O)cc4CC[C@H]3[C@@H]1CC[C@@H]2O
Reply text: t

Inquiry: # iterate: C[C@]12CC[C@@H]3c4ccc(O)cc4C[C@@H](CCCCCCCCCS(=O)CCCC(F)(F)C(F)(F)F)[C@H]3[C@@H]1CC[C@@H]2O (stereo partly specified)
Reply text: t

====

- Tested on: estrogen receptor (rat uterine cytosol)
- MEASUREMENT_PROTOCOL: DSSTox (NCTRER) National Center for Toxicological Research Estrogen Receptor Binding Database;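 further: ratio of estradiol IC50 over compound IC50 times 100 so estradiol equals 100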
- EXPERIMENTAL_PARAMETERS: rat uterine cytosol ER competitive binding, RBA; ChemClass_ERB: DES Hexestrol derivatives; active compounds read high
Results filed as inconclusive are left out.
RECORDED_METRIC: relative binding affinity (%)
Numbers only; they are read as %.

compound="CCC(c1ccc(C)cc1)C(CC)c1ccc(O)cc1 (centres undefined)" system_name="estrogen receptor (rat uterine cytosol)" recorded_metric="relative binding affinity" obs_value=3.98
compound="CCC(c1ccc(O)cc1)C(CC)c1ccc(OC)cc1 (centres undefined)" system_name="estrogen receptor (rat uterine cytosol)" recorded_metric="relative binding affinity" obs_value=9.33
compound=Oc1ccc(CCc2ccc(O)cc2)cc1 system_name="estrogen receptor (rat uterine cytosol)" recorded_metric="relative binding affinity" obs_value=0.0363

Shifting focus to the compound that follows.
Inquiry: Item under review: O=C(C(=O)c1ccc(O)cc1O)c1ccc(O)cc1O . Reported relative binding affinity?
Reply text: 0.209
